Biological target: human SSTR2 (Homo sapiens)
Construct: Myc
Sequence (P30874 whole entry): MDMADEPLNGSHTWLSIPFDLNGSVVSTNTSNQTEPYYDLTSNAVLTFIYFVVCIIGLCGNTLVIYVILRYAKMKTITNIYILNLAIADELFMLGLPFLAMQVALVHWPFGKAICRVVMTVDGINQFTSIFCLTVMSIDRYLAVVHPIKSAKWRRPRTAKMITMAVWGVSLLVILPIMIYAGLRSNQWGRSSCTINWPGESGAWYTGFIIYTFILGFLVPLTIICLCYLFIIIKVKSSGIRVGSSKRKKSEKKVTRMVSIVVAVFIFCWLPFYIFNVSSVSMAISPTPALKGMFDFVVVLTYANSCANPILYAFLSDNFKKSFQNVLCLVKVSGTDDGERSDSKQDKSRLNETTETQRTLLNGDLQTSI
Assay: Evaluation of SSTR2 agonistic activity using cells expressing human SSTR2 (suppression of forskolin-stimulated cAMP production, SSTR2-CHO-K1)
OBSERVATION TYPE: EC50 (nM)

Consider the worked cases shown below.
NC1CCN(c2c(-c3ccc(OC(F)F)cc3)cncc2-c2cc(F)cc(Cl)c2)CC1 ... 0.041
C/C(=C\c1cncc(-c2cc(Cl)cc(Cl)c2)c1N1CCC(N)CC1)c1cccc(F)c1 ... 0.04
CCNC1CCN(c2c(/C=C(\C)c3cccc(F)c3)cncc2-c2cc(Cl)cc(Cl)c2)CC1 ... 0.071
NC1CCN(c2c(-c3ccc(OC(F)F)cc3)cncc2-c2cc(Cl)cc(Cl)c2)CC1 ... 0.021
CO[C@@H]1CN(c2c(-c3ccc(C(F)(F)F)cc3)cncc2-c2cc(Cl)cc(Cl)c2)CC[C@H]1N (racemic) ... 0.47

(A) NC1CCN(c2c(/C=C/c3cccc(Cl)c3)cncc2-c2cc(F)cc(Cl)c2)CC1
(B) NC1CCN(c2c(NC(=O)c3cccc(Cl)c3)cncc2-c2cc(F)cc(Cl)c2)CC1
(C) CCNC1CCN(c2c(/C=C(\C)c3cccc(C#N)c3)cncc2-c2cc(Cl)cc(Cl)c2)CC1
(D) NC1CCN(c2c(-c3ccc(C(F)(F)F)cc3)cncc2-c2cc(Cl)cc(Cl)c2)CC1
Problem: Task field, ranking: reported EC50, descending order. Dear reader, please state the labels in the requested order.
Result: B, A, C, D

====

Assay: Human hepatic microsome stability test
Format: in vitro ADME
Conditions: human hepatic microsomes 1 mg/mL; 60 minutes; test compound 0.001 mmol/L; 37° C.
OBSERVATION TYPE: residual rate (%)

As a guide, the following entries are already answered.
CCNC1CCN(c2c(/C=C(\C)c3cccc(C#N)c3)cncc2-c2cc(Cl)cc(Cl)c2)CC1 [Example 5] ... 79.7
CCNC1CCN(c2c(-c3ccc(C4(C#N)CC4)cc3)cncc2-c2cc(Cl)cc(Cl)c2)CC1 [Example 5(2)] ... 80.3
NC1CCN(c2c(NC(=O)c3cccc(Cl)c3)cncc2-c2cc(F)cc(Cl)c2)CC1 [Example 7] ... 100.0
CCNC1CCN(c2c(/C=C/c3cccc(C#N)c3)cncc2-c2cc(Cl)cc(Cl)c2)CC1 [Example 5(6)] ... 83.9
NC1CCN(c2c(-c3ccc(C(F)(F)F)cc3)cncc2-c2cc(F)cc(Cl)c2)CC1 [Example 2] ... 88.0
CC(C)(C#N)c1ccc(-c2cncc(-c3cc(Cl)cc(Cl)c3)c2N2CCC(N)CC2)cc1 [Example 2(4)] ... 94.0

(P) N#CC1(c2ccc(-c3cncc(-c4cc(Cl)cc(Cl)c4)c3N3CC[C@@H]4NCCO[C@H]4C3)cc2)CC1 [Example 2(5)]
(Q) C/C(=C\c1cncc(-c2cc(Cl)cc(Cl)c2)c1N1CCC(N)CC1)c1cccc(C#N)c1 [Example 4]
Problem: residual rate comparison. Which is larger, P or Q ? Refer to your chosen entry by its label in the reply.
Result: Q

====

Test: Evaluation of cytotoxicity using cultured human hepatocytes (intracellular ATP)
Format: cell-based
Details: read-out: IC50 of cytotoxicity (concentration at which 50% of the luminescence is suppressed)
OBSERVATION TYPE: IC50 at 24 h (µM)
Your answer is read as µM, so omit the unit and give the number.

Below: 4 compounds and their reported IC50 at 24 h.
C/C(=C\c1cncc(-c2cc(Cl)cc(Cl)c2)c1N1CCC(N)CC1)c1cccc(C#N)c1 ... 17
CCNC1CCN(c2c(/C=C(\C)c3cccc(F)c3)cncc2-c2cc(Cl)cc(Cl)c2)CC1 ... 17
CCNC1CCN(c2c(-c3ccc(C(F)(F)F)cc3)cncc2-c2cc(Cl)cc(Cl)c2)CC1 ... 18
NC1CCN(c2c(/C=C/c3cccc(Cl)c3)cncc2-c2cc(F)cc(Cl)c2)CC1 ... 19

Entry NC1CCN(c2c(-c3ccc(C(F)(F)F)cc3)cncc2-c2cc(F)cc(Cl)c2)CC1 ; IC50 at 24 h = 10

Memo: C/C(=C\c1cncc(-c2cc(Cl)cc(Cl)c2)c1N1CCC(N)CC1)c1cccc(F)c1 , reported IC50 at 24 h: 36

The compound identified as NC1CCN(c2c(-c3ccc(OC(F)F)cc3)cncc2-c2cc(F)cc(Cl)c2)CC1 registered its IC50 at 24 h at 19

Notebook: NC1CCN(c2c(NC(=O)c3cccc(Cl)c3)cncc2-c2cc(F)cc(Cl)c2)CC1 , IC50 at 24 h read as 74

====

Assay: Evaluation of cytotoxicity using cultured human hepatocytes (intracellular ATP)
Assay type: cell-based
Settings: read-out: IC50 of cytotoxicity (concentration at which 50% of the luminescence is suppressed)
Measured IC50 at 24 h, listed per entry for reference.
Report only the number, with the unit µM understood.

NC1CCN(c2c(-c3ccc(OC(F)F)cc3)cncc2-c2cc(Cl)cc(Cl)c2)CC1 ... 9
CCNC1CCN(c2c(-c3ccc(C(C)(C)C#N)cc3)cncc2-c2cc(Cl)cc(Cl)c2)CC1 ... 17

API: the following record is the query input.
Lab note: measured IC50 at 24 h of CCNC1CCN(c2c(-c3ccc(OC(F)F)cc3)cncc2-c2cc(Cl)cc(Cl)c2)CC1 was 10

====

Test: Human hepatic microsome stability test
Type: in vitro ADME
Conditions: human hepatic microsomes 1 mg/mL; 60 minutes; test compound 0.001 mmol/L; 37° C.
OBSERVATION TYPE: residual rate (%)

COc1ccc(F)cc1C(=O)Nc1cncc(-c2cc(Cl)cc(Cl)c2)c1N1CCC(N)CC1 [Example 7(1)] ... 92.9
CCNC1CCN(c2c(-c3ccc(C(C)(C)C#N)cc3)cncc2-c2cc(Cl)cc(Cl)c2)CC1 [Example 5(4)] ... 74.9
NC1CCN(c2c(-c3ccc(OC(F)F)cc3)cncc2-c2cc(Cl)cc(Cl)c2)CC1 [Example 2(3)] ... 96.4
NC1CCN(c2c(-c3ccc(C(F)(F)F)cc3)cncc2-c2cc(Cl)cc(Cl)c2)CC1 [Example 1] ... 94.6
CCNC1CCN(c2c(-c3ccc(C(F)(F)F)cc3)cncc2-c2cc(Cl)cc(Cl)c2)CC1 [Example 5(1)] ... 57.6
Fc1cccc(/C=C/c2cncc(-c3cc(Cl)cc(Cl)c3)c2N2CC[C@@H]3NCCO[C@H]3C2)c1 [Example 3(2)] ... 48.4
NC1CCN(c2c(/C=C/c3cccc(Cl)c3)cncc2-c2cc(F)cc(Cl)c2)CC1 [Example 3(1)] ... 50.3
N#Cc1cccc(/C=C/c2cncc(-c3cc(Cl)cc(Cl)c3)c2N2CCC(N)CC2)c1 [Example 4(1)] ... 49.9
CCNC1CCN(c2c(-c3ccc(OC(F)F)cc3)cncc2-c2cc(Cl)cc(Cl)c2)CC1 [Example 5(3)] ... 67.7

====

Assay: Evaluation of cytotoxicity using cultured human hepatocytes (intracellular ATP)
Assay type: cell-based
Conditions: read-out: IC50 of cytotoxicity (concentration at which 50% of the luminescence is suppressed)
Listed below: IC50 at 24 h values for each entry.
Report as a plain number; the unit µM is understood.

CCNC1CCN(c2c(/C=C(\C)c3cccc(C#N)c3)cncc2-c2cc(Cl)cc(Cl)c2)CC1 [Example 5] ... 18
COc1ccc(F)cc1C(=O)Nc1cncc(-c2cc(Cl)cc(Cl)c2)c1N1CCC(N)CC1 [Example 7(1)] ... 34
CC(C)(C#N)c1ccc(-c2cncc(-c3cc(Cl)cc(Cl)c3)c2N2CCC(N)CC2)cc1 [Example 2(4)] ... 13

Next, consider the following compound.
compound N#CC1(c2ccc(-c3cncc(-c4cc(Cl)cc(Cl)c4)c3N3CCC(N)CC3)cc2)CC1 [Example 2(2)] , IC50 at 24 h observed: 11
